Form field: Survival (%) ± SEM Mut MEFs (one value per entry).
System: Mut MEFs
Assay: Cell survival assay, Crystal violet staining, Mut MEFs
Assay type: cell-based, mouse
Conditions: 20 μM, 24 hours, untreated cells set to 100%
Protocol: Cells were seeded on 96-wells plate at a density of 5000 cells per well. Astrocytes were seeded following coating with 0.001% PDL.
MEASURED_ENDPOINT: Survival (%) ± SEM Mut MEFs

> print(dat)
                                   molecule  target.under.test  value.reported
1      Cc1ccc(OCCCCN2CCOCC2)cc1C [Hit H8-5]           Mut MEFs             100
2  COc1cccc(OCCCCCN2CCOCC2)c1 [Hit H8-6, 4-[5-(3-methoxyphenoxy)pentyl]morpholine]           Mut MEFs              92
3  Cc1cccc(OCCCCN2CCOCC2)c1 [Hit H8-4, 4-[4-(3-methylphenoxy)butyl]morpholine]           Mut MEFs              95
4  Cc1cccc(OCCCCCCN2CCOCC2)c1 [Hit H8-3, 4-[6-(3-methylphenoxy)hexyl]morpholine]           Mut MEFs              96
5   Cc1cc(C)cc(OCCCCCN2CCOCC2)c1 [Hit H8-1]           Mut MEFs             103
6  O=C(OCCN1CCOCC1)C1(c2ccccc2)CCCCC1 [pre084]           Mut MEFs              97
7  Clc1cccc(OCCCCCN2CCOCC2)c1 [Hit H8-7, 4-[5-(3-chlorophenoxy)pentyl]morpholine]           Mut MEFs              91
8     Cc1ccc(OCCCCCN2CCOCC2)cc1C [Hit H8-2]           Mut MEFs              94
9     CN1CCN(CCCCCOc2ccccc2F)CC1 [Hit H8-8]           Mut MEFs              99

---

tested on: Mut MEFs; assay: Cell survival assay, Crystal violet staining, Mut MEFs; format: cell-based, mouse; settings: 1 μM, 24 hours, untreated cells set to 100%
MEASURED_ENDPOINT: Survival (%) ± SEM Mut MEFs

COMPOUND	VALUE_REPORTED
Cc1cccc(OCCCCCN2CCOCC2)c1 [H8 (p8G5), 4-[5-(3-methylphenoxy)pentyl]morpholine]	102
CNC1CCC(N(Cc2cccc(-c3ccncc3)c2)C(=O)c2sc3ccccc3c2Cl)CC1 (centres unmarked) [SAG, reference compound]	68
CC1=C2C[C@H]3[C@@H](CC=C4C[C@@H](O)CC[C@@]43C)[C@@H]2CC[C@]12O[C@@H]1C[C@H](C)CN[C@H]1[C@H]2C [Cyclopamine, reference compound]	95
O=C(OCCN1CCOCC1)C1(c2ccccc2)CCCCC1 [pre084]	101
CCCN(CCC)CCc1ccc(OC)c(OCCc2ccccc2)c1 [NE100]	98

---

Readings of Survival (%) ± SEM Mut MEFs for the listed compounds
Tested on: Mut MEFs
Assay: Cell survival assay, Crystal violet staining, Mut MEFs
Assay type: cell-based, mouse
Conditions: 10 μM, 24 hours, untreated cells set to 100%
Procedure: Cells were seeded on 96-wells plate at a density of 5000 cells per well. Astrocytes were seeded following coating with 0.001% PDL.

COMPOUND	Survival (%) ± SEM Mut MEFs
Cc1cccc(OCCCCCCN2CCOCC2)c1 [Hit H8-3, 4-[6-(3-methylphenoxy)hexyl]morpholine]	100
Cc1ccc(OCCCCN2CCOCC2)cc1C	92
Cc1cccc(OCCCCCN2CCOCC2)c1 [H8 (p8G5), 4-[5-(3-methylphenoxy)pentyl]morpholine]	99
COc1cccc(OCCCCCN2CCOCC2)c1 [Hit H8-6, 4-[5-(3-methoxyphenoxy)pentyl]morpholine]	97
Cc1cc(C)cc(OCCCCCN2CCOCC2)c1	104
O=C(OCCN1CCOCC1)C1(c2ccccc2)CCCCC1	99
Clc1cccc(OCCCCCN2CCOCC2)c1 [Hit H8-7, 4-[5-(3-chlorophenoxy)pentyl]morpholine]	98
CN1CCN(CCCCCOc2ccccc2F)CC1	101
Cc1ccc(OCCCCCN2CCOCC2)cc1C	92
Cc1cccc(OCCCCN2CCOCC2)c1 [Hit H8-4, 4-[4-(3-methylphenoxy)butyl]morpholine]	92
CCCN(CCC)CCc1ccc(OC)c(OCCc2ccccc2)c1	88
CC1=C2C[C@H]3[C@@H](CC=C4C[C@@H](O)CC[C@@]43C)[C@@H]2CC[C@]12O[C@@H]1C[C@H](C)CN[C@H]1[C@H]2C [Cyclopamine, reference compound]	79

---

tested on: Mut MEFs; assay: Cell survival assay, Crystal violet staining, Mut MEFs; assay type: cell-based, mouse; details: 0.1 μM, 24 hours, untreated cells set to 100%

MOLECULE	Survival (%) ± SEM Mut MEFs
CCCN(CCC)CCc1ccc(OC)c(OCCc2ccccc2)c1	99
CNC1CCC(N(Cc2cccc(-c3ccncc3)c2)C(=O)c2sc3ccccc3c2Cl)CC1 (centres unmarked) [SAG, reference compound]	95
Cc1cccc(OCCCCCN2CCOCC2)c1 [H8 (p8G5), 4-[5-(3-methylphenoxy)pentyl]morpholine]	104
O=C(OCCN1CCOCC1)C1(c2ccccc2)CCCCC1	100
CC1=C2C[C@H]3[C@@H](CC=C4C[C@@H](O)CC[C@@]43C)[C@@H]2CC[C@]12O[C@@H]1C[C@H](C)CN[C@H]1[C@H]2C [Cyclopamine, reference compound]	92

---

Survival (%) ± SEM Mut MEFs: recorded values
tested on: Mut MEFs; assay: Cell survival assay, Crystal violet staining, Mut MEFs; type: cell-based, mouse; conditions: 30 μM, 24 hours, untreated cells set to 100%
MEASURED_ENDPOINT: Survival (%) ± SEM Mut MEFs

> print(dat)
                                    molecule            measured.endpoint  unit.abbrev  value.reported
 1  Cc1cccc(OCCCCCCN2CCOCC2)c1 [Hit H8-3, 4-[6-(3-methylphenoxy)hexyl]morpholine]  Survival (%) ± SEM Mut MEFs            %              88
 2                CN1CCN(CCCCCOc2ccccc2F)CC1  Survival (%) ± SEM Mut MEFs            %              90
 3  Cc1cccc(OCCCCCN2CCOCC2)c1 [H8 (p8G5), 4-[5-(3-methylphenoxy)pentyl]morpholine]  Survival (%) ± SEM Mut MEFs            %             105
 4  Clc1cccc(OCCCCCN2CCOCC2)c1 [Hit H8-7, 4-[5-(3-chlorophenoxy)pentyl]morpholine]  Survival (%) ± SEM Mut MEFs            %              88
 5                 Cc1ccc(OCCCCN2CCOCC2)cc1C  Survival (%) ± SEM Mut MEFs            %              98
 6                Cc1ccc(OCCCCCN2CCOCC2)cc1C  Survival (%) ± SEM Mut MEFs            %              95
 7              Cc1cc(C)cc(OCCCCCN2CCOCC2)c1  Survival (%) ± SEM Mut MEFs            %              97
 8        O=C(OCCN1CCOCC1)C1(c2ccccc2)CCCCC1  Survival (%) ± SEM Mut MEFs            %             105
 9  COc1cccc(OCCCCCN2CCOCC2)c1 [Hit H8-6, 4-[5-(3-methoxyphenoxy)pentyl]morpholine]  Survival (%) ± SEM Mut MEFs            %              93
10  Cc1cccc(OCCCCN2CCOCC2)c1 [Hit H8-4, 4-[4-(3-methylphenoxy)butyl]morpholine]  Survival (%) ± SEM Mut MEFs            %              98
